Target: human sodium channel Nav 1.7 (Homo sapiens (Human), UniProt Q15858)
Sequence (Q15858 whole entry): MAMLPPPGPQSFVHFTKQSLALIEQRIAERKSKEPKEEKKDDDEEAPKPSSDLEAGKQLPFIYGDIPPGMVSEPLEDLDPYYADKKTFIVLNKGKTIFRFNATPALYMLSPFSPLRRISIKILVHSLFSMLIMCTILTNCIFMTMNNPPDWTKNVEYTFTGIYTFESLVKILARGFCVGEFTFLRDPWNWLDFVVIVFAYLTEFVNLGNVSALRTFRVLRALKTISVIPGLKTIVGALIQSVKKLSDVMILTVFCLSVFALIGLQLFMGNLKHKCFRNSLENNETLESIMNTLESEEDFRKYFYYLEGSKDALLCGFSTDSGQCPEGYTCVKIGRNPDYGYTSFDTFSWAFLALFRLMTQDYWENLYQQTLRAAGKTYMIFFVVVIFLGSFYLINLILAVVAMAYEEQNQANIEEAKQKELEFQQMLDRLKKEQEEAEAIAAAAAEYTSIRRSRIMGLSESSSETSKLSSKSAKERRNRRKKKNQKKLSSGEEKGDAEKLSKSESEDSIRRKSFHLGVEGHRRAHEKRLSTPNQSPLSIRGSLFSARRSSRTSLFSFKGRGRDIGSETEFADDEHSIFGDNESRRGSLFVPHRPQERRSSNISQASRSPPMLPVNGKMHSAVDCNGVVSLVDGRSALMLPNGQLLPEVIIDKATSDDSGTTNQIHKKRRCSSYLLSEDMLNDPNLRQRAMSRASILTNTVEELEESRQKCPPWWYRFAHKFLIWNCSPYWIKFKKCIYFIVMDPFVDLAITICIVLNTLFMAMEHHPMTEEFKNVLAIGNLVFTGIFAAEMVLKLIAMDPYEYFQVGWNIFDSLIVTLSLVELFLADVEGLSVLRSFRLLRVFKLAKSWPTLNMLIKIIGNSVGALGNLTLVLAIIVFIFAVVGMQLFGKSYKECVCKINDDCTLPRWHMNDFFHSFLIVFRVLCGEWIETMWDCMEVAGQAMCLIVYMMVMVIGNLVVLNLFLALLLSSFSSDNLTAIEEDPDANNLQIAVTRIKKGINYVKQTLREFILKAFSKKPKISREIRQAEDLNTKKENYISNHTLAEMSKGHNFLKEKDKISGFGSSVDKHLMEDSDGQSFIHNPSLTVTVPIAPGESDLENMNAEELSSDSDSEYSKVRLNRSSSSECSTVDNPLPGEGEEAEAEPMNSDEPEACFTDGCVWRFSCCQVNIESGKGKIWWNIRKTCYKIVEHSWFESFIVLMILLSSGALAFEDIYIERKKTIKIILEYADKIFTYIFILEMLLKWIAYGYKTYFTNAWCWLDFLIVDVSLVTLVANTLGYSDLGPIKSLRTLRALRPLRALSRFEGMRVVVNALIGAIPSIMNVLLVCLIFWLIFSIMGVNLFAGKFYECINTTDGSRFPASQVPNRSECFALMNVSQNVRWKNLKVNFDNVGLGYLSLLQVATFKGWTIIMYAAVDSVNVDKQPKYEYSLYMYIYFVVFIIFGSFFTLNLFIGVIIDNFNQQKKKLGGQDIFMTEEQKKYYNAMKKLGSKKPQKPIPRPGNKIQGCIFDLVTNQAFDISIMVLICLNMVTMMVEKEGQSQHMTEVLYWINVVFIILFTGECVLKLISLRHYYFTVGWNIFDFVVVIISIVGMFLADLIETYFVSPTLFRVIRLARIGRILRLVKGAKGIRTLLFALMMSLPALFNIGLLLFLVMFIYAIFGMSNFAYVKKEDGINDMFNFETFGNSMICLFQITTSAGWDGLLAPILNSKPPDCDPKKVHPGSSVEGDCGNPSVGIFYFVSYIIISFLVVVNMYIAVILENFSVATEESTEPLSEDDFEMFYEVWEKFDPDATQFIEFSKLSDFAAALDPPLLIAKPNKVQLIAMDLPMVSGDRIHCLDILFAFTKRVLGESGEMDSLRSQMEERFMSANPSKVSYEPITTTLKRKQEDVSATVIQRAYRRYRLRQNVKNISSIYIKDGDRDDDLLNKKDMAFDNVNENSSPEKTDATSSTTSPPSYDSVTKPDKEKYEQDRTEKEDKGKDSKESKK
Test: Automated whole-cell voltage-clamp (ScreenPatch 384P), Nav 1.7 sodium current, Protocol 2
Format: cell-based
Details: read-out: Nav1.7 IC50
propertyName: IC50

Please review the following examples before continuing.
entrySmiles | IC50
COc1cc(/C=N/NC(=O)c2cncc(C(C)C)n2)cc(OC)c1 | > 10 µM
COc1cc(/C=N/NC(=O)c2cncc(-c3ccc(OC(C)C)cc3)n2)cc(OC)c1 | 0.0631 µM
COc1cc(/C=N/NC(=O)c2nccnc2C)cc(OC)c1 | > 10 µM
COc1cc(/C=N/NC(=O)c2cncc(-c3ccccc3)n2)cc(OC)c1 | > 10 µM
CCOc1ccc(-c2cncc(C(=O)N/N=C/c3ccccc3S(C)(=O)=O)n2)cc1 | 7.22 µM
CCCCOc1ccc(-c2cncc(C(=O)N/N=C/c3cc(OC)cc(OC)c3)n2)c(Cl)c1 | 0.245 µM

QUERY: Give measured IC50 for COc1cc(/C=N/NC(=O)c2cncc(Cl)n2)cc(OC)c1 (human sodium channel Nav 1.7 (Homo sapiens (Human), UniProt Q15858)).
RESULT: > 10 µM

QUERY: Answer briefly: IC50 recorded on human sodium channel Nav 1.7 (Homo sapiens (Human), UniProt Q15858) for CCOc1cc(C)c(-c2cncc(C(=O)N/N=C/c3cccc(OC)c3)n2)c(C)c1
RESULT: > 10 µM

QUERY: Quote human sodium channel Nav 1.7 (Homo sapiens (Human), UniProt Q15858) IC50 for entry COc1cc(/C=N/NC(=O)c2cncc(-c3ccncc3)n2)cc(OC)c1 .
RESULT: > 10 µM

----------
Target: human sodium channel Nav 1.8 (Homo sapiens (Human))
Test: Automated whole-cell voltage-clamp (ScreenPatch 384P), Nav 1.8 sodium current, Protocol 2
Assay type: cell-based
Settings: read-out: Nav1.8 IC50
propertyName: IC50 (µM)

entrySmiles | target | IC50 [µM]
CCOc1ccc(-c2cncc(C(=O)N/N=C/c3cc(OC)c(F)c(OC)c3)n2)c(OC)c1 | human sodium channel Nav 1.8 (Homo sapiens (Human)) | 1

I = COc1cc(/C=N/NC(=O)c2cncc(-c3ccc(OC(C)C)cc3)n2)cc(OC)c1
II = CCCc1ccc(-c2cncc(C(=O)N/N=C/c3cc(OC)cc(OC)c3)n2)cc1
QUERY: For the pair I and II , which member has the lower IC50 number? // return label of chosen record
RESULT: I
(I: 0.0513 µM, II: 0.433 µM)

----------
Target: human sodium channel Nav 1.8 (Homo sapiens (Human), UniProt Q9Y5Y9)
Sequence (Q9Y5Y9 whole entry): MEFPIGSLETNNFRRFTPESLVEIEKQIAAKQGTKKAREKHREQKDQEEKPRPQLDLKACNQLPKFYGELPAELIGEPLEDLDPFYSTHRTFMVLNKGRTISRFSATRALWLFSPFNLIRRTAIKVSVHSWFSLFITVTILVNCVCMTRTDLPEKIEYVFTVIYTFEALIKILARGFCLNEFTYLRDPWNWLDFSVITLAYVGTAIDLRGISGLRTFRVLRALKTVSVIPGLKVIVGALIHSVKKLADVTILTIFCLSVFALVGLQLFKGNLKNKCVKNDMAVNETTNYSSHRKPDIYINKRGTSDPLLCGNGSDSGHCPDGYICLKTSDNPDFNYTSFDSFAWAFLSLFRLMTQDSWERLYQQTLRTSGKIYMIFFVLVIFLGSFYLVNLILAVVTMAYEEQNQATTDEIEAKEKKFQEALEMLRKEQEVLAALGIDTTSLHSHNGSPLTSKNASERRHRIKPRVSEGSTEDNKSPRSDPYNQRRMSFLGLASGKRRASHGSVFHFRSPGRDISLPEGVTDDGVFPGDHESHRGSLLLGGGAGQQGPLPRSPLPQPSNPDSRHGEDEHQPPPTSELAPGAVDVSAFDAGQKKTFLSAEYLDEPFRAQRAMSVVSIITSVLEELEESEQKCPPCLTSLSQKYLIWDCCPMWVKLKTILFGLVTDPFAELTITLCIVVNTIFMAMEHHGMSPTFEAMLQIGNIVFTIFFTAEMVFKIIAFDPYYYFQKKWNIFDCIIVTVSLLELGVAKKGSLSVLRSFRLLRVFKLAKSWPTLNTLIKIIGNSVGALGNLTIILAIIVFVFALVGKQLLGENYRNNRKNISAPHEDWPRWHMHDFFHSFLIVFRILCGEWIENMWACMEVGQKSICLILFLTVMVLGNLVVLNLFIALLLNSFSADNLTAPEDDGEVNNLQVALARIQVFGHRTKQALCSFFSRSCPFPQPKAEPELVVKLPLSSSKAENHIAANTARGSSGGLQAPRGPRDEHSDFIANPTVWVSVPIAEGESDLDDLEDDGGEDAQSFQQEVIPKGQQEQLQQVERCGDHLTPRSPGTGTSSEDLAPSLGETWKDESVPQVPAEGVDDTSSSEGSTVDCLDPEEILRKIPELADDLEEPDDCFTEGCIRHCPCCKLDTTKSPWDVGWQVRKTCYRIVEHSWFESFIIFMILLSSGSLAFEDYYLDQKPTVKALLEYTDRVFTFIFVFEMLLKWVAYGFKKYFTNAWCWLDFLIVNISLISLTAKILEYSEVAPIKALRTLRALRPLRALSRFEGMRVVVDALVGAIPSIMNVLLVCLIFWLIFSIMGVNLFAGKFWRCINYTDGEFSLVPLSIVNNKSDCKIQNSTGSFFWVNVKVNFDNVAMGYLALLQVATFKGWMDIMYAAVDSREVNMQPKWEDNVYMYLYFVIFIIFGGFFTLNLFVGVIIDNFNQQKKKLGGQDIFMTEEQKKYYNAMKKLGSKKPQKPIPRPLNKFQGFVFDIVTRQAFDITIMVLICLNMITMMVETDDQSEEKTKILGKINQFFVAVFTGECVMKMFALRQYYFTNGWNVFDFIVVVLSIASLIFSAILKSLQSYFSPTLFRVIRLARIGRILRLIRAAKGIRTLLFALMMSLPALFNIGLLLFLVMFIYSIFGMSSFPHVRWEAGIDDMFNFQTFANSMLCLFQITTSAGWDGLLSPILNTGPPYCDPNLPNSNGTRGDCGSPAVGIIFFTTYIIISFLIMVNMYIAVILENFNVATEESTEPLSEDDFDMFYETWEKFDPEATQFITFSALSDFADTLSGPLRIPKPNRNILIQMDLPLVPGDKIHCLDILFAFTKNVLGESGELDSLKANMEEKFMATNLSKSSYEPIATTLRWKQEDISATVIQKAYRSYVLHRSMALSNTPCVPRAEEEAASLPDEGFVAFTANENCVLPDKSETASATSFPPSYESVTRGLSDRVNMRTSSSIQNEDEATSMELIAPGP
Experiment: Automated whole-cell voltage-clamp (ScreenPatch 384P), Nav 1.8 sodium current, Protocol 2
Assay type: cell-based
Details: read-out: Nav1.8 IC50
pIC50: −log10 of the molar value.
propertyName: pIC50

In the examples that follow, each entry is paired with its recorded pIC50.
entrySmiles | testResult
COc1cc(/C=N/NC(=O)c2cncc(-c3ccc(OC(C)(C)C)cc3)n2)cc(OC)c1 | 6.35
COc1ccc(-c2cncc(C(=O)N/N=C/c3cccc(Br)c3)n2)cc1 | 6.32

A = COc1cc(/C=N/NC(=O)c2cncc(-c3ccc(OC4CCCCC4)cc3)n2)cc(OC)c1
B = COc1ccc(-c2cncc(C(=O)N/N=C/c3ccc(OC)cc3OC)n2)cc1
QUERY: // which entry has the larger pIC50 value, A or B ? State the label of the item chosen.
RESULT: A
(A: 6.83, B: 6.08)
